# SYSTEM TESTED: Estrogen receptor (Homo sapiens)
# PROTOCOL DETAILS: qHTS assay to identify small molecule agonists of the estrogen receptor alpha (ER-alpha) signaling pathway using the BG1 cell line (AID 743079); note: nearly all actives have a fitted effect of over 20% in size
# RUN CONDITIONS: BG1Luc4E2 cells, ERE-luciferase agonist, 22 h; series mostly up to 70.3 µM
Records with an inconclusive call do not appear. Calls of active or inactive are those of the source. Calls come from the whole dose curve; as a rule, active = well fitted activation curve with a large enough effect in the repeat runs; inconclusive = weak or mixed curves, or effect the other way; inactive = no such curve, though single readings can be large or run the other way.
I would appreciate it if you answered using one of these outcomes: True for active, False for inactive

Task: Dear colleague, could you share the recorded outcome for NCCCN1CCN(CCCN)CC1 when you have a moment?
Output: False

Task: What classification did O=C(CC(=O)C(F)(F)F)c1ccccc1 end up with in this test?
Output: True

Task: Field: outcome | Entry: CCOC(=O)COc1ccc2c(c1)CC(NCC(O)c1cccc(Cl)c1)CC2 (stereo not given)
Output: False

Task: Please indicate how the test categorized Clc1cccc(-c2cc(Cl)cc(Cl)c2)c1 .
Output: False

Task: Kindly provide the recorded test outcome for the following compound: CCN(CCCc1ccccc1)CCCc1ccccc1
Output: False

Task: Returns: the outcome recorded for C=CCCCCCCCCO in this assay.
Output: False

Task: Identify the outcome logged in this assay for the compound shown: COc1ccccc1OCC(O)COC(N)=O (stereo not given)
Output: False

Task: Each compound tested received a call. Report the one for CO[C@@]1(NC(=O)CSCC#N)C(=O)N2C(C(=O)O)=C(CSc3nnnn3C)CS[C@@H]21 .
Output: False

Task: Recorded test call requested for CCCCCCCCCC/C=C/C#N
Output: False

Task: Hi team, can someone confirm the assay call for CCN(CC)CC1CCCCN1CC(=O)N1c2ccccc2C(=O)Nc2cccnc21 (stereo not given) ?
Output: False

Task: Fill in: this test's call for O=C1CCN(c2ccccc2)N1 is ___
Output: False

Task: How was Cc1cc2c(s1)Nc1ccccc1N=C2N1CCN(C)CC1 classified in this test?
Output: False

Task: Answer briefly: the call reported for COc1cc(C)ccc1C(C)C in this assay.
Output: False

Task: What outcome does the record of this test show for CS(=O)(=O)c1ccc([C@@H](O)[C@@H](CF)NC(=O)C(Cl)Cl)cc1 ?
Output: False

Task: What classification did Oc1ccccc1F end up with in this test?
Output: False

Task: // outcome(item) with item = CCC(=O)O[C@]1(C(=O)SCF)[C@H](C)C[C@H]2[C@@H]3C[C@H](F)C4=CC(=O)C=C[C@]4(C)[C@@]3(F)[C@@H](O)C[C@@]21C
Output: False

Task: Tell me the recorded outcome of this test for C=CCCC=C .
Output: False

Task: // outcome(item) with item = Cc1ccsc1C(=CCCN1CCC[C@@H](C(=O)O)C1)c1sccc1C
Output: True

Task: Could you check what this test reported for CC(C)(C)c1ccc(OC(=O)c2ccccc2O)cc1 ?
Output: True

Task: State the result this test recorded for CN(CCCN1c2ccccc2CCc2ccccc21)CC(=O)c1ccc(Cl)cc1 .
Output: False

Task: Outcome? C[C@@H]1CN(c2c(F)c(N)c3c(=O)c(C(=O)O)cn(C4CC4)c3c2F)C[C@H](C)N1
Output: False

Task: Entry CCCCNC(=S)NCCCC : call = ?
Output: False

Task: Look up the recorded call for COc1ccc(S(=O)(=O)Nc2nnc(CC(C)C)s2)cc1 in this test.
Output: False

Task: Can you look up the reported call for CCOC(=O)[C@H](CCc1ccccc1)N[C@@H](C)C(=O)N1Cc2cc(OC)c(OC)cc2C[C@H]1C(=O)O for me?
Output: False

Task: Would you mind telling me which call this test gave COc1ccc(Nc2ccc(OC)cc2)cc1 ?
Output: True
